Cited source: the RNAGym collection of RNA variant scans (doi:10.7554/elife.80360)

self-cleavage values for the variants below.
B1: HDV Ribozyme (parent)
chain: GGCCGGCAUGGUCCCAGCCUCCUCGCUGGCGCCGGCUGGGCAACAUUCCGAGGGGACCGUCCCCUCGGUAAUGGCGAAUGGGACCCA

variants of: B1; assay: self-cleavage, relative activity (ratio to wild type); higher = more cleavage; co-transcriptional
In your answer, state the number alone without any accompanying words.

Answered examples (2):
{"MUTATION_ANNOTATION": "U27G C62A", "METRIC": "self-cleavage", "RECORDED_MEASUREMENT": 1.09}
{"MUTATION_ANNOTATION": "G34U A51G", "METRIC": "self-cleavage", "RECORDED_MEASUREMENT": 0.339}

## Task Give the reported value of self-cleavage for this record: G10U C21G
## Result 0

## Task # return recorded self-cleavage for entry C32A C57U
## Result 0.318

## Task Please supply the value of reported self-cleavage for the item C44U C84G
## Result 0.404

## Task Give reported self-cleavage value for C21G C86A
## Result 0.0665
